# credit: ChEMBL document CHEMBL5308504

# MEASURED TARGET: Bromodomain-containing protein 4 (Homo sapiens)
# PROTOCOL CONDITIONS: Compound concentration 20.0 uM, Protein concentration 2.0 uM, Result type QC Liability
// thresholds for ΔTm classes: 1: < -3 °C; 2: ≥ -3 °C and < -0.6 °C; 3: ≥ -0.6 °C

Completed entries (count: 5):
- COMPOUND: "CC(C)(C)c1cc(NC(=O)c2csc(Nc3ccccn3)n2)no1"
  ASSIGNED CATEGORY: 3
- COMPOUND: "Cc1cc(-c2cnc(N)c3c(-c4ccc5scnc5c4)csc23)n(C)n1"
  ASSIGNED CATEGORY: 2
- COMPOUND: "Cc1ccc(NS(=O)(=O)c2ccc3c(c2)C2C=CCC2C(c2ccc(C(=O)O)cc2)N3)cc1C (centres undefined)"
  ASSIGNED CATEGORY: 2
- COMPOUND: "Cc1cc(CN)cc(C)c1-c1ncn(C)c1-c1ccnc2cc(F)ccc12"
  ASSIGNED CATEGORY: 2
- COMPOUND: "CCCS(=O)(=O)Nc1ccc(F)c(Nc2ncnc3cnc(-n4cnc(C)c4)nc23)c1F"
  ASSIGNED CATEGORY: 2

Categorize the following entry: Cn1cnc(Cn2ccc3ccc(CNCc4[nH]c5ccccc5c4[C@H]4NC(=O)c5ccc(O)cc54)cc32)c1
3

Categorize the following entry: COc1cc(C(N)=O)ccc1Nc1ncc2c(n1)N(CCC(C)C)[C@H](C)C(=O)N2C
3

Categorize the following entry: Cc1cccc(-c2[nH]c(CNc3ccccc3F)nc2-c2ccc3ncnn3c2)n1
2

Categorize the following entry: O=C(Nc1ccccc1C(=O)O)c1cc(S(=O)(=O)c2ccccc2)ccc1Cl
3

Categorize the following entry: Cc1cc(SCc2sc(-c3ccc(C(F)(F)F)cc3)nc2C)ccc1OCC(=O)O
1

Categorize the following entry: COc1ccc(S(=O)(=O)N2CCOCC2)cc1Nc1ccc2c(n1)N(C1CCN(C)CC1)[C@H](C)C(=O)N2C
1

Categorize the following entry: CN(C)c1ccc(-c2cc3ncccc3c(OCCCCO)n2)cc1
2

Categorize the following entry: O=C(O)c1ccc(OCCCc2ccc(OCCCCOC3CCCCC3)cc2)c(C(=O)NC2CCCC(C(=O)O)C2)c1 (centres undefined)
3

Categorize the following entry: CCCCc1c(-c2ccccc2)nc(N)nc1-c1ccc(OCc2ccccc2)c(F)c1F
1

Categorize the following entry: NCC1CCC(CNc2nc(NCc3ccccc3OC(F)(F)F)ncc2[N+](=O)[O-])CC1 (centres undefined)
1

Categorize the following entry: Cc1c(-c2c(F)cc(C(N)=O)c3[nH]c4c(c23)CC[C@H](C(C)(C)O)C4)cccc1-n1c(=O)c2cccc(F)c2n(C)c1=O
2
